Reference source for all entries: patent US10208089B2

# assay target: C5 (Homo sapiens)
# Sequence (P01031 19-1676): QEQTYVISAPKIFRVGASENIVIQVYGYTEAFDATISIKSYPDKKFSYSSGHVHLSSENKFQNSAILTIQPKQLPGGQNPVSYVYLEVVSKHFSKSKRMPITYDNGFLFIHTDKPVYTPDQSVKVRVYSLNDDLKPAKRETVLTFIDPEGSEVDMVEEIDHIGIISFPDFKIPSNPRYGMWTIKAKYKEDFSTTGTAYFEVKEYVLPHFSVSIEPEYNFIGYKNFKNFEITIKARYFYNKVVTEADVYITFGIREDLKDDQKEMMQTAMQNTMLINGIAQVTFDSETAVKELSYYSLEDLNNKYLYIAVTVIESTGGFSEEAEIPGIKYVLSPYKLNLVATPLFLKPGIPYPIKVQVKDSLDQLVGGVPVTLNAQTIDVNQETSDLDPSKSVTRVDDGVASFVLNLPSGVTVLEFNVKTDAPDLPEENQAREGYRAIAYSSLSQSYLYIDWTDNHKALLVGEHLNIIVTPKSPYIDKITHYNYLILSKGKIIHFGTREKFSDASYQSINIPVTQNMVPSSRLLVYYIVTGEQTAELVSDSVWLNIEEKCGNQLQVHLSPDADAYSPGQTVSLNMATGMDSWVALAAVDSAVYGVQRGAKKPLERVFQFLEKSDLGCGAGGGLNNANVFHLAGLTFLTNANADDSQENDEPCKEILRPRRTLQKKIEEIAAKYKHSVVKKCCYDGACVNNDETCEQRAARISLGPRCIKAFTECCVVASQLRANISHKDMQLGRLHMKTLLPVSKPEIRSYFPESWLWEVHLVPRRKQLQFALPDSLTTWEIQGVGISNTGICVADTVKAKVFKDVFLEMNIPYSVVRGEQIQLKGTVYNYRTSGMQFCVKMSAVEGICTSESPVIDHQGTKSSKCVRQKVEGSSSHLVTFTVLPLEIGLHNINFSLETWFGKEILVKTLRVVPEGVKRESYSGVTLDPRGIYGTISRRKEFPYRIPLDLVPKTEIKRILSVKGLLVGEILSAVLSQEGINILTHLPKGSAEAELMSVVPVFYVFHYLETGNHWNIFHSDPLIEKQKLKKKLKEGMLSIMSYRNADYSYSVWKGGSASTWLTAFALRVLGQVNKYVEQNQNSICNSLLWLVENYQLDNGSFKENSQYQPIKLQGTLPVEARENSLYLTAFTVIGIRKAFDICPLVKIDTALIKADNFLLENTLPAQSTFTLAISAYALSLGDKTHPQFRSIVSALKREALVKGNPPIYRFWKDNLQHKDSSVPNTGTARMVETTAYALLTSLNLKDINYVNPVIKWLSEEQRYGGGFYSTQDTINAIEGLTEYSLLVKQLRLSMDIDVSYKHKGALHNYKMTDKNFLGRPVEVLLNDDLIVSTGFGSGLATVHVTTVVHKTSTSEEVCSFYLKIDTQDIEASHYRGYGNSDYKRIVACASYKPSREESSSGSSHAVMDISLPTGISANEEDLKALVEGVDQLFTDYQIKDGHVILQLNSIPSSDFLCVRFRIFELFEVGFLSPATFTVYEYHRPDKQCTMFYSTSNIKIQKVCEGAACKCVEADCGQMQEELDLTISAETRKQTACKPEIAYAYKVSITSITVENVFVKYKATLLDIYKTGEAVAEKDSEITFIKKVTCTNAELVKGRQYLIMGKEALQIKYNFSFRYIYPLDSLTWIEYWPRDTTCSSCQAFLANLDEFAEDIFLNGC
# experiment description: Human hemolysis assay (RBC lysis assay using complete human sera)
# Format: cell-based
# Design: with complete human sera (Complement Technology, Tyler Tex.) and polypeptides; tissue Complement Technology, Tyler Tex; host or cells: complete human serum
# condition label: inhibition of lysis of antibody-sensitized sheep erythrocytes, complete human sera
Starred links: 1 amine or outer side, 2 acyl side, 3 side chain; linkers in the order of their positions; H or OH if unused. Positions of bridges follow the written chain, without caps; N, C: chain ends. Non-standard residues stand in square brackets, D forms with d. Residues, ends and D or L forms follow the SMILES beside them. Trp(7-aza) = N[C@@H](Cc1c[nH]c2ncccc12)C(=O)O; Phg(2-OMe) = COc1ccccc1[C@H](N)C(=O)O; mXylylene = c1cc(C[*:1])cc(C[*:2])c1; pXylylene = c1cc(C[*:2])ccc1C[*:1]; Phg = N[C@H](C(=O)O)c1ccccc1; Tle = CC(C)(C)[C@H](N)C(=O)O; NMeS = CN[C@@H](CO)C(=O)O; hCys = N[C@@H](CCS)C(=O)O; Nva = CCC[C@H](N)C(=O)O
IC50: recorded values

Some solved cases for reference:
Req: Find the recorded IC50 belonging to CCC[C@H](NC(=O)[C@@H]1CSCc2cccc(c2)CSC[C@H](NC(=O)[C@H](CCC)NC(C)=O)C(=O)N[C@@H](c2ccccc2OC)C(=O)N[C@@H]([C@@H](C)O)C(=O)N[C@@H](Cc2c[nH]c3ncccc23)C(=O)N[C@@H](CCC(=O)O)C(=O)N[C@@H](Cc2ccc(O)cc2)C(=O)N(C)[C@@H](CO)C(=O)N[C@@H](Cc2c[nH]cn2)C(=O)N1)C(N)=O [Compound R3087] (Ac-[Nva]C[Phg(2-OMe)]T[Trp(7-aza)]EY[NMeS]HC[Nva]-NH2; linker 2-10 via mXylylene) and report it.
Resp: > 25000 nM

Req: Find the recorded IC50 belonging to `CC(=O)N[C@H]1CSCc2cccc(c2)CSC[C@@H](C(=O)N[C@@H](CC(=O)O)C(=O)N[C@H](C(=O)N[C@@H](Cc2ccc(O)cc2)C(=O)N[C@@H](Cc2c[nH]c3ncccc23)C(=O)N[C@@H](CCC(=O)O)C(=O)N[C@@H](Cc2ccc(O)cc2)C(=O)N2CCC[C@H]2C(=O)N[C@@H](C(=O)N[C@@H](CCCCN)C(N)=O)c2ccccc2)C(C)(C)C)NC(=O)[C@H](Cc2ccccc2)NC(=O)[C@H](CCCNC(=N)N)NC(=O)[C@H](CCC(=O)O)NC(=O)[C@H](C)NC1=O` and report it.
Resp: 16.5 nM

Req: Find the recorded IC50 belonging to CCC[C@H](NC(=O)[C@@H]1CSCc2ccc(cc2)CSCC[C@H](NC(=O)[C@H](CCC)NC(C)=O)C(=O)N[C@@H](c2ccccc2)C(=O)N[C@@H]([C@@H](C)O)C(=O)N[C@@H](Cc2c[nH]c3ncccc23)C(=O)N[C@@H](CCC(=O)O)C(=O)N[C@@H](Cc2ccc(O)cc2)C(=O)N(C)[C@@H](CO)C(=O)N[C@@H](Cc2c[nH]cn2)C(=O)N1)C(N)=O [Compound R3104] (Ac-[Nva][hCys][Phg]T[Trp(7-aza)]EY[NMeS]HC[Nva]-NH2; linker 2-10 via pXylylene) and report it.
Resp: > 2000 nM

New cases:
Req: Find the recorded IC50 belonging to CCC[C@H](NC(C)=O)C(=O)N[C@H]1CSCc2cccc(c2)CSC[C@@H](C(N)=O)NC(=O)[C@H](Cc2c[nH]cn2)NC(=O)[C@H](CO)N(C)C(=O)[C@H](Cc2ccc(O)cc2)NC(=O)[C@H](CCC(=O)O)NC(=O)[C@H](Cc2c[nH]c3ncccc23)NC(=O)[C@H]([C@@H](C)O)NC(=O)[C@H](c2ccccc2)NC1=O [Compound R3013] (Ac-[Nva]C[Phg]T[Trp(7-aza)]EY[NMeS]HC-NH2; linker 2-10 via mXylylene) and report it.
Resp: 344 nM

Req: Find the recorded IC50 belonging to CCC[C@H](NC(C)=O)C(=O)N[C@@H](CS)C(=O)N[C@@H](Cc1ccc(O)cc1)C(=O)N[C@@H](CC(N)=O)C(=O)N[C@@H](CC(N)=O)C(=O)N[C@H](C(=O)N[C@@H](CCC(=O)O)C(=O)N[C@@H](Cc1c[nH]c2ncccc12)C(=O)N[C@@H](CCC(=O)O)C(=O)N[C@@H](Cc1ccc(O)cc1)C(=O)N1CCC[C@H]1C(=O)N[C@H](C(=O)N[C@H](C(N)=O)C(C)(C)C)c1ccccc1)C(C)(C)C [Compound R3004] (Ac-[Nva]CYNN[Tle]E[Trp(7-aza)]EYP[Phg][Tle]-NH2) and report it.
Resp: 53.5 nM
